# Experiment: qHTS assay to test for compound auto fluorescence at 535 nm (green) in HEK293 cells (AID 720680); note: % is set by controls: 0 for no effect and ±100 for the full control effect
# Protocol Conditions: green autofluorescence 485/535 nm; series mostly up to 91.3 µM
Active and inactive are the calls of the source. Calls come from the whole dose curve; as a rule, active = well fitted curve in the direction sought with a large enough effect in the repeat runs; inconclusive = weak or mixed curves; inactive = flat fitted curve, though single readings scatter.
Readout Label: fluorescence, % of fluorescein

Entry `CCCCc1nc2cccnc2n1Cc1ccc(-c2ccccc2-c2nnn[nH]2)cc1` , fluorescence, % of fluorescein reported as inactive

Per the records, this compound ( `COc1ccc(C)cc1[N+](=O)[O-]` ) has fluorescence, % of fluorescein equal to inactive

For reference, reported fluorescence, % of fluorescein for `O=C(CS)Nc1ccccc1` stands at inactive

// sample `COc1ccc(S(=O)(=O)N2C(=O)[C@@](c3ccccc3OC)(N3C[C@H](O)C[C@H]3C(=O)N(C)C)c3cc(Cl)ccc32)c(OC)c1` , its fluorescence, % of fluorescein was inactive

Further cases:
`C=CC(=O)OCCOCCOC(=O)C=C` has a reported fluorescence, % of fluorescein of inactive

fluorescence, % of fluorescein measured on `O=C(O)c1ccc(-n2nc(-c3ccccc3O)nc2-c2ccccc2O)cc1` = inactive

Lookup result for CC1=CCCC(C)(C)C12CCC(C)O2 (configuration not stated) ; measured fluorescence, % of fluorescein: inactive

fluorescence, % of fluorescein for `CCOc1ccc(O)cc1` is inactive

Sample `CCCCO` ; fluorescence, % of fluorescein observed: inactive

Measured fluorescence, % of fluorescein of `CC(C)(COC(=O)c1ccccc1)COC(=O)c1ccccc1` : inactive

Entry `C=CCOC(=O)CCC1CCCCC1` , fluorescence, % of fluorescein reported as inactive

Value of measured fluorescence, % of fluorescein for the entry `C#C[C@]1(O)CC[C@H]2[C@@H]3CCc4cc(OC5CCCC5)ccc4[C@H]3CC[C@@]21C` : inactive

---

# Experiment: qHTS assay to identify small molecule antagonists of the sonic hedgehog signaling (Shh) pathway (AID 1259369); note: nearly all actives have a fitted effect of over 45% in size
# Protocol Conditions: NIH/3T3 Gli1-Luc reporter, Shh antagonist, luminescence 24 h; series mostly up to 92.4 µM
Results filed as inconclusive are left out. The source made the active and inactive calls. Calls come from the whole dose curve.
Answer with one of the outcomes label 1 for active, label 0 for inactive

Here are 6 molecules together with their reported answers.
Recorded test call requested for CN(C)CCOC(c1ccccc1)c1ccc(Br)cc1 (stereo not given)
label 1

Status in this test for `O=C(O)c1ccco1` ?
label 0

Which result was noted for this molecule in the test: `CNCCCN1c2ccccc2CCc2ccccc21`
label 1

Assay result, entry `C[C@@H]1C[C@H]2[C@@H]3CCC4=CC(=O)C=C[C@]4(C)[C@@]3(F)[C@@H](O)C[C@]2(C)[C@@]1(O)C(=O)COC(=O)c1ccncc1` — outcome?
label 0

Please indicate how the test categorized `CCCCCCCCCCCC(=O)OC[C@@H](O)[C@H]1OC[C@H](OCCO)[C@H]1OCCO` .
label 0

Hello, I am checking results. What call was entered for `CC(C)Nc1ccc(NC(C)C)c2c1C(=O)c1ccccc1C2=O` ?
label 0

New cases:
Tell me the assay call for `O=[N+]([O-])c1ccc(NCCO)c(OCCO)c1` please.
label 0

Field: outcome | Entry: `Cc1nn(C)c(Oc2ccccc2)c1/C=N/OCc1ccc(C(=O)OC(C)(C)C)cc1`
label 1

State the result this test recorded for `CCCCCCCN` .
label 0

Outcome? `O=C(CS)Nc1ccccc1`
label 0

Could you kindly confirm the outcome this assay logged for `Clc1ccc2c(c1)CCc1cccnc1C2=C1CCNCC1` ?
label 1

---

# Experiment: qHTS assay to identify small molecule antagonists of the progesterone receptor (PR) signaling pathway - cell viability counter screen (AID 1346798); note: nearly all actives have a fitted effect of over 50% in size
# Protocol Conditions: PR-UAS-bla HEK293T viability, CellTiter-Glo luminescence, 16 h; series mostly up to 92.4 µM
Records with an inconclusive call do not appear. Active and inactive are the calls of the source. Calls follow the shape of the dose curve; as a rule, active = well fitted cell-killing curve with a large enough effect in the repeat runs; inconclusive = weak or mixed curves, or effect the other way; inactive = no such curve, though single readings can be large or run the other way.
Output constraint: value belongs to active, inactive

How was O=C1OC(=O)C2C3C=CC(C3)C12 (stereo unspecified) classified in this test?
inactive

Could you please tell me the result logged for `Nc1ccccc1S(=O)(=O)c1ccccc1` in this assay?
inactive

Check the results log: what was the call for `c1ccc(C(O[C@H]2CCCN(CCc3ccc4c(c3)OCO4)C2)c2ccccc2)cc1` ?
inactive

More entries:
Just curious, what result did `C[N+](C)(C)CCOC(=O)CCC(=O)OCC[N+](C)(C)C` get here?
inactive

# lookup: test call for `Cc1cccc(C)c1NC(=O)CN(CC(=O)O)CC(=O)O`
inactive

What was the test verdict on `Cc1ccc(N=Nc2c(O)c(C(=O)O)cc3ccccc23)c(S(=O)(=O)O)c1` ?
inactive

Which result was noted for this molecule in the test: OC(CN1CCC(Cc2ccc(F)cc2)CC1)c1ccc(Cl)cc1 (stereo unspecified)
inactive

Test call, this molecule: `COc1cccc(N(C)C(=S)Oc2ccc3c(c2)CCCC3)n1`
inactive

What is the recorded call for this molecule in the test? O[C@@H](COc1cccc2ncccc12)CN1CCN(C2c3ccccc3[C@@H]3[C@H](c4ccccc42)C3(F)F)CC1 (stereo partly specified)
inactive

Outcome logged for O=C(O)C(S)C(S)C(=O)O (stereo unspecified) in this assay:
inactive

Test call for this molecule, please: `O=C(CS)Nc1ccccc1`
inactive

Which outcome was assigned to `CN1C[C@H]2c3ccccc3Oc3ccc(Cl)cc3[C@@H]2C1` in this test?
inactive

Hey, what did the test say about `CCCCCCCC/C=C\CCCCCCCC(=O)OCC` ?
inactive

Hey, what did the test say about `CCOc1ccc(O)cc1` ?
inactive

Assay outcome for C=CCOc1ccccc1OCC(O)CNC(C)C (stereo unspecified) : what was it?
inactive

What outcome does the record of this test show for `O=S(=O)(Oc1ccc(Cl)cc1)c1ccccc1` ?
inactive

Give the logged outcome of this assay for the following molecule: `NC(=O)C(c1ccccc1)(c1ccccc1)[C@@H]1CCN(CCc2ccc3c(c2)CCO3)C1`
inactive

Answer briefly: the call reported for `CNCCCN1c2ccccc2CCc2ccccc21` in this assay.
active

Tell me the assay call for `CCCCCC[C@@H](O)C/C=C\CCCCCCCC(=O)OC` please.
inactive

State the result this test recorded for `CCC(CC)Nc1ccc(C)c(C)c1` .
inactive

Recorded call for O=C1OC(CN2CCOCC2)CN1/N=C/c1ccc([N+](=O)[O-])o1 (stereo unspecified) ?
inactive

Which outcome was assigned to CCN(CC)CCOC(=O)C(c1ccccc1)C1CCCCC1 (stereo unspecified) in this test?
inactive

Can you look up the reported call for COCC(C)OC(C)=O (stereo unspecified) for me?
inactive

So what was the verdict on `O=C(O)c1ccco1` in this test?
inactive

Given `CCCCC` , state the outcome it received in this test.
inactive

For CC[N+](C)(CC)CCOC(=O)C(O)(c1ccccc1)C1CCCCC1 (stereo unspecified) , what call appears in the results of this test?
inactive

---

# Experiment: qHTS assay to identify small molecule agonists of the peroxisome proliferator-activated receptor delta (PPARd) signaling pathway - cell viability counter screen (AID 743211); note: nearly all actives have a fitted effect of over 55% in size
# Protocol Conditions: PPARd-bla HEK293H viability, CellTiter-Glo luminescence, 17 h; series mostly up to 62.6 µM
Inconclusive results are not listed. The source made the active and inactive calls. The call rests on the fitted dose curve; in most records, active means well fitted cell-killing curve with a large enough effect in the repeat runs; inconclusive means weak or mixed curves; inactive means no such curve, though single readings can be large or run the other way.
Mark one answer only. Choices: active, inactive

Use these answered entries as a reference point.
Can you look up the reported call for CC(COCCO)OCCO (centres undefined) for me?
inactive

For this compound, state the assay outcome: CC(C)(C)OCC1CO1 (centres undefined)
inactive

Each compound tested received a call. Report the one for `C#CCN(C)CCCOc1ccc(Cl)cc1Cl` .
inactive

Status in this test for `CN1CCN(C(c2ccccc2)c2ccccc2)CC1` ?
inactive

How was `COc1ccc(C(=O)N2CCN(CC(=O)N3CCOCC3)CC2)cc1` classified in this test?
inactive

New cases:
So what was the verdict on `COc1ccc2cccc(CCNC(C)=O)c2c1` in this test?
inactive

What did this assay record as the result for `CN1CCC(=C2c3ccccc3Sc3ccccc32)CC1` ?
active

Dear all, I need the recorded test outcome for `CN(C)CCN(Cc1ccsc1)c1ccccn1` , thank you.
inactive

Which outcome did this test record for the compound CCC(C)O (centres undefined) ?
inactive

# lookup: test call for `CCOC(=O)NCCOc1ccc(Oc2ccccc2)cc1`
inactive

---

# activity change, negative = inhibition listing for each entry below
# Target Desc: Voltage-gated inwardly rectifying potassium channel KCNH2 (Homo sapiens)
# Experiment: Human Ether-a-go-go-Related Gene (hERG) channel small molecule antagonists: fluorescence cell-based qHTS assay (AID 1671200);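 note: hERG-expressing U2OS cells given a thallium stimulus after FluxOR II dye loading; % is set by controls: 0 for no effect and ±100 for the full control effect; nearly all actives have a fitted effect of over 50% in size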
# Protocol Conditions: hERG-U2OS cells, FluxOR thallium flux fluorescence; series mostly up to 76.8 µM
Records with an inconclusive call do not appear. The source made the active and inactive calls. Calls follow the shape of the dose curve; as a rule, active = well fitted inhibition curve with a large enough effect in the repeat runs; inconclusive = weak or mixed curves; inactive = flat fitted curve, though single readings scatter.

Recorded activity change, negative = inhibition, per entry:
Entry `C/C(=C(\CCOP(=O)(O)O)SC(=O)c1ccccc1)N(C=O)Cc1cnc(C)nc1N` ; activity change, negative = inhibition = 1.89% [at 6.97 µM] (inactive)

activity change, negative = inhibition recorded for this molecule, `O=C(O)CNCC(=O)O` , is 4.26% [at 6.97 µM] (inactive)

// sample `NC(N)=NCCC[C@H](N)C(=O)O` , its activity change, negative = inhibition was 5.88% [at 6.97 µM] (inactive)

More entries:
`C/C=C/C(=O)CC` yielded activity change, negative = inhibition of 2.39% [at 15.8 µM] (inactive)

// recorded activity change, negative = inhibition for `Cc1[nH]c(C)c(Cl)c(=O)c1Cl` : -0.502% [at 15.8 µM] (inactive)

activity change, negative = inhibition reported for this molecule `Brc1c2ccccc2c(Br)c2ccccc12` : -0.46% [at 6.97 µM] (inactive)

Just so you know, measured activity change, negative = inhibition for `NCC(=O)O` came out at 0.344% [at 15.8 µM] (inactive)

For reference, reported activity change, negative = inhibition for CC(CSC(=O)c1ccccc1)C(=O)N1C[C@@H](Sc2ccccc2)C[C@H]1C(=O)O (stereo partly drawn) stands at 3.26% [at 15.8 µM] (inactive)
